Cited source: patent US20220403048A1

- target desc: T1, ARG2 (Homo sapiens, UniProt P78540)
- T1 sequence (P78540 23-354): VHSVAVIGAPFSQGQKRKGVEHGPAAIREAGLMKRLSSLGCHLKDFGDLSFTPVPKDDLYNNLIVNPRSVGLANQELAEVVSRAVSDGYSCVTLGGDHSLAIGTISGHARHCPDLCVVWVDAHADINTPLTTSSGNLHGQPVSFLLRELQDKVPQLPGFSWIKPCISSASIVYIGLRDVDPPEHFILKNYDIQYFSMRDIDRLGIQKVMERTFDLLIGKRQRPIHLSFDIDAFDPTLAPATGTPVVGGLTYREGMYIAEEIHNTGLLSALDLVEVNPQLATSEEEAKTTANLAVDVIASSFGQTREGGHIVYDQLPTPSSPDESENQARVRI
- protocol description: T cell proliferation assay (BrdU, 96 hours) with exogenous ARG2, improved variant IgGs
- Format: cell-based
- condition notes: In Absence of rhARG2; 96 hours; hIgG1
experimental endpoint: Maximum % Proliferation (%)
Output spec: scalar in %, unitless text.

Use the examples below as a reference point.
# molecule, experimental endpoint, result value
data = [
    ("C0021065: anti-ARG2 antibody, VH SEQ ID NO: 72, VL SEQ ID NO: 77 (antibody, listed as Homo sapiens, V domains shown, C0021065) VH: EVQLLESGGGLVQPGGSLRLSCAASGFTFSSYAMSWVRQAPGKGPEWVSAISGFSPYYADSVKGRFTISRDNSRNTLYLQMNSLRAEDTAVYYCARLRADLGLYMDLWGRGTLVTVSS VL: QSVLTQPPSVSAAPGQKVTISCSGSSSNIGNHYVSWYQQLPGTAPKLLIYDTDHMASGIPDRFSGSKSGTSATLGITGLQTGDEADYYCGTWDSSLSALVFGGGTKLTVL", "Maximum % Proliferation", 101),
    ("C0021133: anti-ARG2 antibody, VH SEQ ID NO: 192, VL SEQ ID NO: 197 (antibody, listed as Homo sapiens, V domains shown, C0021133) VH: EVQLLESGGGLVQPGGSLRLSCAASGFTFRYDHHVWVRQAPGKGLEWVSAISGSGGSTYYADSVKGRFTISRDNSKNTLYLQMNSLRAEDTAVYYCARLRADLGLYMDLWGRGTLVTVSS VL: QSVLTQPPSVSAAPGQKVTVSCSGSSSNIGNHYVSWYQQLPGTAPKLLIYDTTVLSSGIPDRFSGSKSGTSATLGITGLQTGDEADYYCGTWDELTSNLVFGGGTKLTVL", "Maximum % Proliferation", 90),
]

Recall and state the measured Maximum % Proliferation for C0021139: anti-ARG2 antibody, VH SEQ ID NO: 212, VL SEQ ID NO: 217 (antibody, listed as Homo sapiens, V domains shown, C0021139) VH: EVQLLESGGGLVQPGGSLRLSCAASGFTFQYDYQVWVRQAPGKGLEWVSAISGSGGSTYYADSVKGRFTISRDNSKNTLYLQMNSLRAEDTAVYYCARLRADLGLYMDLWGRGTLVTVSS VL: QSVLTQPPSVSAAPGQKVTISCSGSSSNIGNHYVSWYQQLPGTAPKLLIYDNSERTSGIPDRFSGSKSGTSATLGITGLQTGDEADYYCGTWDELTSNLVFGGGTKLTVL .
84
